In this section we review reported inhibition of growth at 10 µM values for a set of compounds.
- Test system: SR
- method-description: Growth inhibition of human SR cells at 10 uM after 48 hrs by SRB assay relative to control
- Format: functional
- condition-description: read-out: GI
Report the figure in % without appending any unit label.

• CCSc1nnc(Cc2ccc(OC)cc2)n1-c1ccc(C)cc1 = 8.17
• COc1ccc(Cc2nnc3sc(SCC(=O)Nc4ccc(Cl)cc4)nn23)cc1 = 7.04
• COc1ccc(Cc2nnc(SCC(=O)Nc3ccc(C)cc3)n2-c2ccccc2)cc1 = 17

Turning to the following compound.
inhibition of growth at 10 µM lookup needed for COc1ccc(Cc2nnc(SCC(=O)c3ccc(C)cc3)n2-c2ccccc2)cc1 , thanks.
7.61

* * *

- System: RPMI-8226
- method-description: Growth inhibition of human RPMI8226 cells at 10 uM after 48 hrs by SRB assay relative to control
- Assay type: functional
- condition-description: RPMI-8226, 48 h, read-out: GI
In this section we review reported inhibition of growth at 10 µM values for a set of compounds.

// worked examples, inhibition of growth at 10 µM included
• COc1ccc(Cc2nnc3sc(SCC(=O)Nc4ccc(C)cc4)nn23)cc1 = 1.58%
• COc1ccc(Cc2nnc(SCC(=O)Nc3ccc(C)cc3)n2-c2ccc(C)cc2)cc1 = 10%
• COc1ccc(Cc2nnc(SCC(=O)Nc3ccc(Cl)cc3)n2-c2ccccc2)cc1 = 20.6%
• COc1ccc(Cc2nnc3sc(SCC(=O)Nc4ccc(Cl)cc4)nn23)cc1 = 7.47%
• COc1ccc(Cc2nnc(SCC(=O)c3ccc(Cl)cc3)n2Cc2ccccc2)cc1 = 26.4%
• CCSc1nnc(Cc2ccc(OC)cc2)n1-c1ccccc1 = 13.5%
• COc1ccc(Cc2nnc(SCC(=O)c3ccc(Cl)cc3)n2-c2ccc(C)cc2)cc1 = 25%
• COc1ccc(Cc2nnc(SCC(=O)Nc3ccc(Cl)cc3)n2Cc2ccccc2)cc1 = 22.5%

inhibition of growth at 10 µM lookup needed for COc1ccc(Cc2nnc(SCC(=O)c3ccc(Cl)cc3)n2-c2ccccc2)cc1 , thanks.
13.7%

inhibition of growth at 10 µM lookup needed for CCSc1nnc(Cc2ccc(OC)cc2)n1-c1ccc(C)cc1 , thanks.
13.5%

inhibition of growth at 10 µM lookup needed for COc1ccc(Cc2nnc3sc(SCc4ccccc4)nn23)cc1 , thanks.
2.01%
